experiment.summary: chemical genetic growth profiling, strain panel (AID 1159580);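 note: tested at 20 µM; growth read once vehicle control cultures reached saturation at 30 °C; 1 = growth at the plate median or of vehicle wells; lower values mean less growth of the strain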
condition: S. cerevisiae deletion strains, growth OD, locus YPR141C, strain kar3
Among all 5,500 compounds or so, about 2,000 (36%) were called active. Inconclusive results (about 18%) are left out. Cut-off read from the data, not from the text of the source: active = normalized growth mostly below about 0.91 (no sharp cut-off); inconclusive = no clear call, values can overlap the other calls; inactive = mostly above about 0.92. The list shows a part of the results.
Reply using exactly one outcome from active, inactive

| molecule | category |
| --- | --- |
| CC1(C)C(=O)C=C[C@@]2(C)C1C=C[C@]1(C)C2CC[C@@]2(C)[C@H](c3ccoc3)OC(=O)C3OC321 (some centres not stated) | inactive |
| CC(=O)O[C@@H]1CC2C(C)(C)C(=O)C=C[C@]2(C)C2CC[C@@]3(C)[C@H](c4ccoc4)OC(=O)[C@H]4O[C@]43[C@@]21C (some centres not stated) | inactive |
| C[C@@H]1CC[C@@]2(NC1)O[C@H]1C[C@H]3C4CC=C5C[C@@H](O)CC[C@]5(C)C4CC[C@]3(C)C1[C@@H]2C (some centres not stated) | inactive |
| CC1(C)C=CC(=O)[C@@]2(C)C1CC(=O)[C@]1(C)C2CC[C@@]2(C)[C@H](c3ccoc3)OC(=O)C3OC321 (some centres not stated) | inactive |
| O=C1C=C2C(=CCOC2O)O1 (configuration not stated) | active |

[Q] GET /call?item= CN[C@@H]1C(O)[C@@H](O[C@@H]2[C@@H](O)[C@H](O[C@H]3OC(CN)=CC[C@H]3N)[C@@H](N)C[C@H]2N)OC[C@]1(C)O (some centres not stated) returns the recorded outcome of this test.
[A] inactive

[Q] Assay result, entry CC1(C)C(=O)C=C[C@@]2(C)C1C[C@@H](O)[C@]1(C)C2CC[C@@]2(C)[C@H](c3ccoc3)OC(=O)[C@H]3O[C@]321 (some centres not stated) — outcome?
[A] inactive

* * *

experiment.summary: chemical genetic growth profiling, strain panel (AID 1159580);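 note: tested at 20 µM; growth read once vehicle control cultures reached saturation at 30 °C; 1 = growth at the plate median or of vehicle wells; lower values mean less growth of the strain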
condition: S. cerevisiae deletion strains, growth OD, locus YDL132W, strain cdc53, hits give low values
Among all 5,500 compounds or so, about 2,000 (36%) were called active. Not shown: some 18% with an inconclusive outcome. The list shows a part of the results.
quantity.measured: normalized growth
Give bare numbers.

| compound | normalized growth |
| --- | --- |
| O/N=C(/c1ccc(Cl)cc1)c1cc2ccccc2o1 | 0.962 |
| CC(C)(C)C(=O)NC(=S)N/N=C\c1cc(Cl)cc(Cl)c1O | 0.961 |
| Cc1nnc2n1N=C(c1ccc(CC(C)C)cc1)C(C)S2 (stereo unspecified) | 0.972 |
| Cc1cc(Cl)ccc1NNC(=O)c1sccc1Cl | 0.928 |
| FC(F)(F)c1ccc(N2CCc3ccccc3C2)c(NC(=S)Nc2cc(Cl)cc(Cl)c2)c1 | 0.985 |
| FC(F)(F)c1cccc(NC(=S)NN=C2CCCCCC2)c1 | 0.989 |
| Cc1cc(Cl)ccc1NNC(=O)c1sccc1Br | 0.918 |
| COCCCNC(=S)N/N=C\c1cc(Cl)cc(Cl)c1O | 0.958 |
| CCOC(=O)N/N=C\c1cc(Cl)cc(Cl)c1O | 0.914 |
| COc1ccc(/C=C2/C(=O)Nc3ccccc32)cc1 | 0.873 |

For each of the items listed, what is its normalized growth?
1. COc1cc(Br)cc(C=Nc2ccc(Sc3ccccc3)nc2Sc2ccccc2)c1O
2. O=C(Nc1ccccc1)Nc1ccc(Cl)cc1[N+](=O)[O-]
3. OC(COc1ccc(F)cc1)(c1ccccc1)c1ccccc1

[A]
[0.949, 0.962, 0.955]

Working through the 6 compounds below one at a time, give normalized growth for each.
1. O=S(=O)(CS(=O)(=O)Oc1ccc(Cl)c(Cl)c1)Oc1ccc(Cl)c(Cl)c1
2. O=C1Nc2ccccc2/C1=C\c1c(Cl)cccc1Cl
3. O=C(NNc1ccc(F)cc1F)c1sccc1Cl
4. CC(NC(=S)N/N=C\c1ccccc1O)c1ccccc1 (stereo unspecified)
5. O=C1Nc2ccccc2/C1=C\c1ccc(Cl)cc1
6. c1ccc(-c2nnc(-c3ccccn3)nc2-c2ccccc2)cc1

[A]
[0.968, 0.965, 0.969, 0.973, 0.94, 0.856]

Can you give me normalized growth for all of these, one by one?
1. CC(C)(C)NC(=S)N/N=C\c1ccccc1O
2. Oc1c(Cl)cc(Cl)cc1C=Nc1ccc(Sc2ccccc2)nc1Sc1ccccc1
3. COc1ccccc1NC(=S)N/N=C\c1ccccc1O

[A]
0.95
0.95
0.965

For every item in the list below, what is its measured normalized growth?
1. CN(C)C=Nc1nnc(Sc2nc3c(Cl)cc(Cl)cc3s2)s1
2. CCCCNC(=S)N/N=C\c1cc(Cl)cc(Cl)c1O
3. O=C1Nc2ccccc2/C1=C/c1ccc(Oc2ccccc2)nc1
4. Cc1ccc(C)n1-c1ccc(/C=C2/C(=O)Nc3ccccc32)cc1

[A]
[0.964, 0.917, 0.962, 0.974]

* * *

experiment.summary: chemical genetic growth profiling, strain panel (AID 1159580);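 note: tested at 20 µM; growth read once vehicle control cultures reached saturation at 30 °C; 1 = growth at the plate median or of vehicle wells; lower values mean less growth of the strain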
condition: S. cerevisiae deletion strains, growth OD, locus YEL037C, strain rad23
About 2,000 (36%) of roughly 5,500 compounds were called active. Roughly 18% stayed inconclusive and do not appear here. Cut-off read from the data, not from the text of the source: active = normalized growth mostly below about 0.91 (no sharp cut-off); inconclusive = no clear call, values can overlap the other calls; inactive = mostly above about 0.92. This is one part of the list.
Can you answer with just one of these options? Y for active, N for inactive

| compound | category |
| --- | --- |
| Cc1[nH]ccc2c1[nH]c1cc(=O)ccc12 | N |
| C[C@@H]1CC[C@@]2(NC1)O[C@H]1C[C@H]3C4CC=C5C[C@@H](O)CC[C@]5(C)C4CC[C@]3(C)C1[C@@H]2C (stereo not given in full) | Y |

[Q] Which result was noted for this compound in the test: CCC(c1ccc(O)cc1)C(CC)c1ccc(O)cc1 (stereo not given)
[A] N

[Q] # fetch the recorded call for CC1CC[C@@]2(OC1)O[C@H]1CC3C4CC[C@@H]5C[C@@H](O)CC[C@]5(C)C4CC[C@]3(C)[C@H]1[C@@H]2C (stereo not given in full) here
[A] Y

[Q] Could you check what this test reported for CN[C@@H]1[C@@H](O)C(OC2[C@@H](N)C[C@@H](N)[C@H](O[C@H]3O[C@H](C(C)O)[C@@H](O)[C@H](O)[C@H]3N)[C@H]2O)OC[C@]1(C)O (stereo not given in full) ?
[A] N

[Q] Record lookup: outcome of this test for C[C@]12CCC3c4ccc(O)cc4CCC3C1CC[C@@H]2O (stereo not given in full) ?
[A] N

[Q] Any idea what this test logged for C=C1CCC2(OC1)OC1CC3C4CC=C5CC(O)CC(O)C5(C)C4CCC3(C)C1C2C (stereo not given) ?
[A] N

[Q] Tell me the recorded outcome of this test for CNC(=O)Oc1cccc2c1OC(C)(C)O2 .
[A] N

[Q] Look up the recorded call for CCCC(C)(COC(N)=O)COC(=O)NC(C)C (stereo not given) in this test.
[A] N

[Q] Test call, this compound: C[C@@H]1CC[C@@]2(OC1)O[C@H]1CC3C4CC[C@H]5C[C@@H](O)CC[C@]5(C)C4CC[C@]3(C)[C@H]1[C@@H]2C (stereo not given in full)
[A] N

[Q] Could you please tell me the result logged for CC(C)N(CCC(C(N)=O)(c1ccccc1)c1ccccn1)C(C)C (stereo not given) in this assay?
[A] Y

* * *

experiment.summary: chemical genetic growth profiling, strain panel (AID 1159580);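 note: tested at 20 µM; growth read once vehicle control cultures reached saturation at 30 °C; 1 = growth at the plate median or of vehicle wells; lower values mean less growth of the strain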
condition: S. cerevisiae deletion strains, growth OD, locus YDL040C, strain nat1
The campaign covered roughly 5,500 compounds. About 2,000 (36%) were called active. About 18% were inconclusive and are not listed. Rule as the data show it: active = normalized growth mostly below about 0.91 (no sharp cut-off); inconclusive = no clear call, values can overlap the other calls; inactive = mostly above about 0.92. This is one part of the list.
Hi there, use one of these labels in your reply, thanks! active, inactive

Consider the following illustrative entries.
| compound | category |
| --- | --- |
| C=C(C)[C@H]1COc2cc3oc(=O)ccc3cc2O1 | inactive |
| COC(=O)[C@@]1(C)CCC[C@]2(C)c3ccc(O)c(C(C)C)c3CCC12 (stereo partly specified) | active |
| O=C(OC1Cc2c(O)cc(O)cc2OC1c1cc(=O)c(O)c2c(O)c(O)cc(C3Oc4cc(O)cc(O)c4CC3O)c2c1)c1cc(O)c(O)c(O)c1 (stereo unspecified) | inactive |
| NC(N)=NC(=O)c1nc(Cl)c(N)nc1N | inactive |
| O=c1c(O)c(-c2ccc(O)c(O)c2)oc2c(O)c(O)cc(O)c12 | inactive |

[Q] // outcome(item) with item = C[C@@H]([C@H](O)c1ccccc1)N(C)C
[A] inactive

[Q] Kindly provide the recorded test outcome for the following compound: O=C(O[C@@H]1Cc2c(O)cc(O)cc2O[C@@H]1c1cc(O)c(=O)c2c(O)c(O)cc([C@H]3Oc4cc(O)cc(O)c4C[C@H]3OC(=O)c3cc(O)c(O)c(O)c3)c2c1)c1cc(O)c(O)c(O)c1
[A] active

[Q] Hey, what did the test say about COc1ccc(-c2oc3cc(O[C@H]4O[C@H](CO)[C@@H](O)[C@H](O)[C@H]4O)c(OC)c(O)c3c(=O)c2OC)cc1O ?
[A] inactive

[Q] Entry C[C@@H]1O[C@@H](OC[C@H]2OC(Oc3c(-c4ccc(OCCO)c(OCCO)c4)oc4cc(OCCO)cc(O)c4c3=O)[C@H](O)[C@@H](O)[C@@H]2O)[C@H](O)[C@H](O)[C@H]1O (stereo partly specified) : call = ?
[A] inactive

[Q] # outcome recorded in this test, key = O=c1c(O)c(-c2ccc(O)cc2O)oc2cc(O)cc(O)c12
[A] inactive

[Q] What call does the record list for CCC(c1ccc(O)cc1)C(CC)c1ccc(O)cc1 (stereo unspecified) ?
[A] inactive

[Q] What was the test verdict on CC/C(=C(/CC)c1ccc(O)cc1)c1ccc(O)cc1 ?
[A] inactive

[Q] Record lookup: outcome of this test for NC(=O)NCCCC(N)C(=O)O (stereo unspecified) ?
[A] inactive

Source listed as PubChem BioAssay AID1159580.
